Biological target: JAK1 (aa 850-1154, catalytic domain, GST-tag) (Homo sapiens, UniProt P23458)
Construct: JAK1 (aa 850-1154) and TYK2 (aa 871-1187) are expressed with an N-terminally fused GST-tag; GST (N); purchased Carna Biosciences, Inc; host or cells: baculovirus expression system
Sequence (P23458 850-1154): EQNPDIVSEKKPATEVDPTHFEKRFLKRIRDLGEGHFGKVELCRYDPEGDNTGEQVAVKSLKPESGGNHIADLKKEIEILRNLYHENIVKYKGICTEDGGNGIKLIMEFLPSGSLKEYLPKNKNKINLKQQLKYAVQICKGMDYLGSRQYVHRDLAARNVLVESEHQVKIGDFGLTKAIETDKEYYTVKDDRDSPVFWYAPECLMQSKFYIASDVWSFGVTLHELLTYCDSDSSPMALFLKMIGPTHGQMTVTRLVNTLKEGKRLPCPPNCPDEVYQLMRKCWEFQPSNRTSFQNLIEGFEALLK
Assay: JAK kinase assay (HTRF, phosphorylation of TK substrate-biotin), JAK1
Type: biochemical
Settings: HTRF assay, ATP at Km (7 μM); read-out: JAK1 kinase inhibitory activity (EC50 indicator)
PROPERTY MEASURED: EC50

Answered examples (7):
// returns EC50 for `N#CCCCC(=O)N1CCN(c2ncnc3[nH]ccc23)CC12CC2` with JAK1 (aa 850-1154, catalytic domain, GST-tag) (Homo sapiens, UniProt P23458); value = < 100 nM

// returns EC50 for `CS(=O)(=O)c1ccc2[nH]c(C(=O)N3CCN(c4ncnc5[nH]ccc45)CC34CC4)cc2c1` with JAK1 (aa 850-1154, catalytic domain, GST-tag) (Homo sapiens, UniProt P23458); value = < 100 nM

// returns EC50 for `Cc1cncc(C(=O)N2CCN(c3ncnc4[nH]ccc34)CC23CC3)n1` with JAK1 (aa 850-1154, catalytic domain, GST-tag) (Homo sapiens, UniProt P23458); value = < 100 nM

// returns EC50 for `N#CCCC(=O)N1CCN(c2ncnc3[nH]cc(Cl)c23)CC12CC2` with JAK1 (aa 850-1154, catalytic domain, GST-tag) (Homo sapiens, UniProt P23458); value = > 500 nM

// returns EC50 for `Cc1ccsc1C(=O)N1CCN(c2ccnc3[nH]ccc23)CC12CC2` with JAK1 (aa 850-1154, catalytic domain, GST-tag) (Homo sapiens, UniProt P23458); value = 100 to 500 nM

// returns EC50 for `COc1cnc2[nH]ccc2c1N1CCN(C(=O)c2ccccc2)C2(CC2)C1` with JAK1 (aa 850-1154, catalytic domain, GST-tag) (Homo sapiens, UniProt P23458); value = > 500 nM

// returns EC50 for O=C(c1ccc(S(=O)(=O)NCC2CCCO2)cc1)N1CCN(c2ncnc3[nH]ccc23)CC12CC2 (centres unmarked) with JAK1 (aa 850-1154, catalytic domain, GST-tag) (Homo sapiens, UniProt P23458); value = < 100 nM

Next, consider the following compound.
// returns EC50 for `O=C(c1cc2c(F)cccc2[nH]1)N1CCN(c2ncnc3[nH]ccc23)CC12CC2` with JAK1 (aa 850-1154, catalytic domain, GST-tag) (Homo sapiens, UniProt P23458); value = < 100 nM

----------
Target: JAK2 (catalytic domain, His-tag) (Homo sapiens)
Construct: All four purified enzymes contain only the catalytic domain; His (N); purchased Carna Biosciences, Inc; host or cells: baculovirus expression system
Sequence (O60674 849-1124 limits assumed): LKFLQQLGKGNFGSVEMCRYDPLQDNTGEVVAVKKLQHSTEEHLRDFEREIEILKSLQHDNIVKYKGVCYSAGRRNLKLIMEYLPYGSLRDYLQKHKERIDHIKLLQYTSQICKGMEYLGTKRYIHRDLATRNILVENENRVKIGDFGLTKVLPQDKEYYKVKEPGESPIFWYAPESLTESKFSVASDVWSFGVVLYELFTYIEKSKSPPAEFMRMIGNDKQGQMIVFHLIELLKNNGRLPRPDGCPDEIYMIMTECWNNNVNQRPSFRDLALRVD
Assay: JAK kinase assay (HTRF, phosphorylation of TK substrate-biotin), JAK2
Assay type: biochemical
Conditions: HTRF assay, ATP at Km (4 μM); read-out: JAK2 kinase inhibitory activity (EC50 indicator)
PROPERTY MEASURED: EC50

Answered examples (5):
// returns EC50 for `COc1cnc2[nH]ccc2c1N1CCN(C(=O)c2cc3ccccc3s2)C2(CC2)C1` with JAK2 (catalytic domain, His-tag) (Homo sapiens); value = > 500 nM

// returns EC50 for `Cc1c[nH]c2ncnc(N3CCN(C(=O)Cc4ccc(F)cc4)C4(CC4)C3)c12` with JAK2 (catalytic domain, His-tag) (Homo sapiens); value = 100 to 500 nM

// returns EC50 for `Cc1ccsc1C(=O)N1CCN(c2ccnc3[nH]ccc23)CC12CC2` with JAK2 (catalytic domain, His-tag) (Homo sapiens); value = < 100 nM

// returns EC50 for `NS(=O)(=O)Cc1ccc(C(=O)N2CCN(c3ncnc4[nH]ccc34)CC23CC3)cc1` with JAK2 (catalytic domain, His-tag) (Homo sapiens); value = < 100 nM

// returns EC50 for `COc1cnc2[nH]ccc2c1N1CCN(C(=O)c2cc3ccccc3[nH]2)C2(CC2)C1` with JAK2 (catalytic domain, His-tag) (Homo sapiens); value = > 500 nM

---
// returns EC50 for `Cc1c[nH]c2ncnc(N3CCN(C(=O)CCC#N)C4(CC4)C3)c12` with JAK2 (catalytic domain, His-tag) (Homo sapiens); value = > 500 nM

// returns EC50 for `COc1cnc2[nH]ccc2c1N1CCN(C(=O)c2cc3cc(C#N)ccc3[nH]2)C2(CC2)C1` with JAK2 (catalytic domain, His-tag) (Homo sapiens); value = > 500 nM

// returns EC50 for `O=C(c1ccccn1)N1[C@@H]2CC[C@@H]1CN(c1ncnc3[nH]ccc13)C2` with JAK2 (catalytic domain, His-tag) (Homo sapiens); value = < 100 nM
